System: Fibroblast
Experiment: Multiplex assay against human fibroblast
Format: toxicity, cell-based
Conditions: 12 h, 1 µM, compound concentration 1 uM, replicate 1
Assay readout: Population Pyknosed Nuclei (%)
State just the number; it will be interpreted in %.

Would you please look over these solved cases?
CC[C@@H](C)Nc1nc(C)nc2c(-c3ccc(OC)nc3C)c(C)nn12 [PEXACERFONT]    20
COc1cccc2c1c(NS(=O)(=O)c1ccc(Cl)s1)nn2Cc1cccc(CNC(=O)C(C)(C)O)c1    17
C[C@H](N)COC(=O)[C@@H](CCCCN)NC(=O)Cc1c(-c2ccc3ccccc3c2)[nH]c2c1ccc1ccccc12    15

Next up:
Recall and state the measured Population Pyknosed Nuclei (%) for Cc1cnc(-c2cc(N3CCN(C(=O)CCS(C)(=O)=O)CC3)ncc2Cl)c(C)c1 .
19
